Experiment: soluble on expression in E. coli; label from the status in PepcDB or PDB records
assay-endpoint: soluble on expression in E. coli

record-sequence: MGSDKIHHHHHHMIEFKEVSKRFGSTLALDKLDANFPTGKIIGLFGPNGAGKSTSIKMIAGLNRPDQGQVVIDGELPRMSKAQIAYLPEIDHLYPWMTIGQAAGFTRSFYVDWDNDKYHELLKYLNLNAEMKIGKISKGQRAKTKLLLTAARRAPYLLMDEPLSGIDILTREEIINTLVRDYREGEQTIIISTHEIAEVESLVDEVFFIDQGKIMLSGSAEEFRVERGQSLVEIMKEAFRHADQ
assay-endpoint: soluble on expression in E. coli
experimental-result: not soluble
//
record-sequence: MGSDKIHHHHHHMDSRDMQAIGLCRFSYPAIGGFQVEHETIEERISYLYAEDRLEERFQLLETVALPCLREQTDQNFELIVVIGDTLPKRHGDRLHDLTSDMPQVRIVVEPPRPQRELMKELLNSARTDPSKPCLQFRYDDDDAVSVDFIERFRNALNDCRGLVTTNRTVAVDFNRGYVAELGADGIAATETVRTLYVASLGMYVKGGCRLTIMNFAHEKIGRFMPVISISDVPMWVRSHNGFNDSRQKKVKPVPVVPLTEDQKAEFAARFAIREDHVKRVFSGG
assay-endpoint: soluble on expression in E. coli
experimental-result: not soluble

Just for reference, the DeepSol protein solubility set is where these values come from.
